// values below are reported solubility in NMP
experiment: Solubility of the hole transporting material in NMP; assay type: physicochemical; settings: N-methylpyrrolidone
readout.label: solubility in NMP (mg/mL)

* CC(C)c1ccc(-c2ccc(N(c3ccc(-c4ccccc4)cc3)c3ccc(-c4ccc(N(c5ccc(-c6ccccc6)cc5)c5ccc(-c6ccc(C(C)C)cc6)cc5)c(C(C)C)c4)cc3)cc2)cc1 [Example 3] | 12
* Cc1cc(N(c2ccc(-c3ccccc3)cc2)c2ccc(-c3ccc(C(C)C)cc3)cc2)ccc1-c1ccc(N(c2ccc(-c3ccccc3)cc2)c2ccc(-c3ccc(C(C)C)cc3)cc2)cc1 [Example 4] | 12
* Cc1cc(N(c2ccc(-c3ccccc3)cc2)c2ccc(-c3cccc4c3CCCC4)cc2)ccc1-c1ccc(N(c2ccc(-c3ccccc3)cc2)c2ccc(-c3cccc4c3CCCC4)cc2)cc1 [Example 11] | 15
* Cc1ccccc1-c1ccc(N(c2ccc(-c3ccccc3)cc2)c2ccc(-c3ccc(N(c4ccc(-c5ccccc5)cc4)c4ccc(-c5ccccc5C)c5c4CCCC5)c4c3CCCC4)cc2)c2c1CCCC2 [Example 12] | 21
* Cc1ccc(-c2ccc(N(c3ccc(-c4cccc(C)c4)cc3)c3ccc(-c4ccc(N(c5ccc(-c6ccccc6)cc5)c5ccc(-c6ccc(C)cc6)cc5)c5c4CCCC5)cc3)cc2)cc1 [Example 9] | 35
